Assayed Target: HLA-A*0206 (Human)
Protocol Text: competition vs 125I probe, purified HLA
Cond: remark: other sources report otherwise
Non-standard residues stand in square brackets, D forms with d. No end group written: not given here. Abu = CC[C@H](N)C(=O)O
Endpoint Label: IC50 (nM)
Numeric only. Scale: nM

1. RMPEAAPPVA [p53.65 … (10-mer)]
841

### Prompt Tell us which IC50 value is on record for KMF[Abu]QLAKV [p53.132B4V9 KMFBQLAKV]
### Response 37
